The compounds listed here are annotated with their logP.
RUN DESCRIPTION: log P determination by HPLC on reversed-phase column (C18), EEC Directive 79/831 Annex V.A8, acidic (formic acid)
Format: physicochemical
PROTOCOL CONDITIONS: HPLC method a), acetonitrile/water with formic acid

{"SMILES": "CC(C)n1nc(-c2c(C(F)(F)F)c(C(F)(F)C(F)(F)F)nn2C)nc1-c1ccc(Cl)c(C(=O)NC2CC2)c1", "logP": 4.39}
{"SMILES": "CCn1nc(-c2c(C(F)(F)F)c(C(F)(F)C(F)(F)F)nn2C)nc1-c1ccc(Cl)c(C(=O)Nc2ccccc2)c1", "logP": 4.73}
{"SMILES": "Cn1nc(C(F)(F)C(F)(F)F)c(C(F)(F)F)c1-c1cc(-c2ccc(Cl)c(C(=O)NCC(F)(F)F)c2)no1", "logP": 4.42}
{"SMILES": "CC(C)n1nc(-c2c(C(F)(F)F)c(C(F)(F)C(F)(F)F)nn2C)nc1-c1ccc(Cl)c(C(=O)Nc2ccccc2)c1", "logP": 5.23}
{"SMILES": "Cn1nc(-c2c(C(F)(F)F)c(C(F)(F)C(F)(F)F)nn2C)nc1-c1ccc(Cl)c(C(=O)NCC(F)(F)F)c1", "logP": 3.99}
{"SMILES": "Cn1nc(C(F)(F)C(F)(F)F)c(C(F)(F)F)c1-c1ncc(-c2cccc(C(N)=O)c2)s1", "logP": 3.38}
{"SMILES": "CCn1nc(-c2c(C(F)(F)F)c(C(F)(F)C(F)(F)F)nn2C)nc1-c1ccc(Cl)c(C(=O)NC2CC2)c1", "logP": 3.99}
{"SMILES": "Cn1nc(-c2ccc(Cl)c(C(=O)NCC(F)(F)F)c2)nc1-c1c(C(F)(F)F)c(C(F)(F)C(F)(F)F)nn1C", "logP": 4.14}
{"SMILES": "Cn1nc(C(F)(F)C(F)(F)F)c(C(F)(F)F)c1-c1nnc(-c2ccc(Cl)c(C(=O)NCc3ccccc3)c2)[nH]1", "logP": 4.00}
{"SMILES": "Cn1nc(C(F)(F)C(F)(F)F)c(C(F)(F)F)c1-c1cc(-c2ccc(Cl)c(C(=O)NC3(C#N)CC3)c2)no1", "logP": 3.96}
{"SMILES": "Cn1nc(C(F)(F)C(F)(F)F)c(C(F)(F)F)c1-c1nc(-c2ccc(Cl)c(C(=O)NCc3ccccc3)c2)ns1", "logP": 5.00}
{"SMILES": "CCn1nc(-c2c(C(F)(F)F)c(C(F)(F)C(F)(F)F)nn2C)nc1-c1ccc(Cl)c(C(=O)NCC(F)(F)F)c1", "logP": 4.32}
{"SMILES": "Cn1nc(C(F)(F)C(F)(F)F)c(C(F)(F)F)c1-c1csc(-c2ccc(Cl)c(C(=O)NC3CC3)c2)c1", "logP": 4.31}
{"SMILES": "CCn1nc(-c2ccc(Cl)c(C(=O)NC3CC3)c2)nc1-c1c(C(F)(F)F)c(C(F)(F)C(F)(F)F)nn1C", "logP": 4.09}
{"SMILES": "Cn1nc(C(F)(F)C(F)(F)F)c(C(F)(F)F)c1-c1nnc(-c2ccc(Cl)c(C(=O)Nc3ccccc3)c2)[nH]1", "logP": 4.13}
{"SMILES": "CC(C)n1nc(-c2ccc(Cl)c(C(=O)NC3CC3)c2)nc1-c1c(C(F)(F)F)c(C(F)(F)C(F)(F)F)nn1C", "logP": 4.35}
{"SMILES": "Cn1nc(-c2ccc(Cl)c(C(=O)NC3CC3)c2)nc1-c1c(C(F)(F)F)c(C(F)(F)C(F)(F)F)nn1C", "logP": 3.80}
{"SMILES": "Cn1nc(-c2ccc(Cl)c(C(=O)Nc3ccccc3)c2)nc1-c1c(C(F)(F)F)c(C(F)(F)C(F)(F)F)nn1C", "logP": 4.56}
{"SMILES": "Cn1nc(C(F)(F)C(F)(F)F)c(C(F)(F)F)c1-c1nc(-c2ccc(Cl)c(C(=O)NC3(C#N)CC3)c2)no1", "logP": 4.14}
{"SMILES": "Cn1nc(C(F)(F)C(F)(F)F)c(C(F)(F)F)c1-c1ccc(-c2ccc(Cl)c(C(=O)NC3(C#N)CC3)c2)o1", "logP": 4.08}
